EXPERIMENTAL DETAILS: qHTS profiling for inhibitors of Plasmodium falciparum proliferation (AID 504749);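 note: 0% = DMSO vehicle and full inhibition = artemisinin control; nearly all actives have a fitted effect of over 60% in size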
CONDITION CONTEXT: P. falciparum in erythrocytes, SYBR Green DNA, 72 h; at 12.8 µM (top of the series); parasite line A
Inconclusive results are not listed.
ATTRIBUTE MEASURED: activity, negative = inhibition (%)
Report only the number, with the unit % understood.

Form field activity, negative = inhibition, entry C[C@@H]1C[C@H]2[C@@H]3C[C@H](F)C4=CC(=O)C=C[C@@]4(C)[C@]3(F)[C@H](O)C[C@]2(C)[C@@]1(O)C(=O)CO : 7.34

Next:
Short answer for C[N+]12CCC(CC1)[C@@H](OC(=O)C(O)(c1ccccc1)c1ccccc1)C2 : activity, negative = inhibition was 11.6

compound C[C@H]1CS(=O)(=O)CCN1/N=C\c1ccc([N+](=O)[O-])o1 , activity, negative = inhibition observed: -17.9

Reported activity, negative = inhibition for NS(=O)(=O)c1cc2c(cc1C(F)(F)F)N[C@H](Cc1ccccc1)NS2(=O)=O was -1.91

Please fill in: activity, negative = inhibition reported for CC(=O)OCC(=O)[C@@]1(O)CC[C@@H]2[C@H]3CCC4=CC(=O)C=C[C@]4(C)[C@]3(F)[C@@H](O)C[C@@]21C = -3.89

// sample CCC(C)(C)C(=O)O[C@@H]1C[C@H](C)C=C2C=C[C@H](C)[C@@H](CC[C@H]3C[C@@H](O)CC(=O)O3)[C@H]21 , its activity, negative = inhibition was -15.1

For CC=C(/C(=C/C)c1ccc(O)cc1)c1ccc(O)cc1 the compound record lists activity, negative = inhibition as -1.05

# activity, negative = inhibition of CC1(C)S[C@@H]2[C@H](NC(=O)[C@@H](N)c3ccccc3)C(=O)N2[C@H]1C(=O)O[C@H]1OC(=O)c2ccccc21 = 9.34

The reported activity, negative = inhibition of the compound CNC[C@H](O)c1ccc(OC(=O)C(C)(C)C)c(OC(=O)C(C)(C)C)c1 was -7.03

###

MEASUREMENT TARGET: Cytochrome P450 2D6 (Homo sapiens) (UniProt P10635)
Sequence (P10635 whole entry, looked up): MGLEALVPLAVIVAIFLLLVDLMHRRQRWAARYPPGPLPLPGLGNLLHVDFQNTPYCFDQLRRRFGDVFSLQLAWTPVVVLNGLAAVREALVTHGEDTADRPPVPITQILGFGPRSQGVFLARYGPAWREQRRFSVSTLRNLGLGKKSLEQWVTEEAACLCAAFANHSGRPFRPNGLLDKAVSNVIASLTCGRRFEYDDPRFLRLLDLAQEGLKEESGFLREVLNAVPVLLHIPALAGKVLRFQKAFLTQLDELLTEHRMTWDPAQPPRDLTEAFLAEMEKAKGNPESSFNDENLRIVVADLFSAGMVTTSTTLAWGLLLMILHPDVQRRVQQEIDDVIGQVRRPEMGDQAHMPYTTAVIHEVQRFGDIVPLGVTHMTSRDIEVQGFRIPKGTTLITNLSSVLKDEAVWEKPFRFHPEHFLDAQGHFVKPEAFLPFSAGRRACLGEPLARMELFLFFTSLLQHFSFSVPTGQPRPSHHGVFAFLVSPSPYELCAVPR
EXPERIMENTAL DETAILS: Cytochrome P450 family 2 subfamily D member 6 (CYP2D6) small molecule antagonists: luciferase biochemical (cell-free) qHTS assay (AID 1645840); note: nearly all actives have a fitted effect of over 55% in size; note: potency is the fitted concentration of half-maximal effect
CONDITION CONTEXT: P450-Glo CYP2D6 enzyme, luciferin luminescence, 1 h; series mostly up to 57.4 µM
Records with an inconclusive call do not appear. Active and inactive are the calls of the source. Calls come from the whole dose curve; as a rule, active = well fitted inhibition curve with a large enough effect in the repeat runs; inconclusive = weak or mixed curves; inactive = flat fitted curve, though single readings scatter.
ATTRIBUTE MEASURED: Potency

Notebook: CC1(C#N)CCN(c2c(C(=O)N3CCN(S(C)(=O)=O)CC3)cnc3ccc(F)cc23)CC1 , Potency read as inactive

Note to self: Potency recorded for CC[C@H]1OC(=O)[C@H](C)[C@@H](O[C@H]2C[C@@](C)(OC)[C@@H](O)[C@H](C)O2)[C@H](C)[C@@H](O[C@@H]2O[C@H](C)C[C@H](N(C)C)[C@H]2O)[C@](C)(OC)C[C@@H](C)C(=O)[C@H](C)[C@@H](O)[C@]1(C)O was inactive

In plain terms, C[S+](=O)([O-])Nc1ccc(-c2ccc3nc(-c4ccc(OC(F)(F)F)cc4)[nH]c3c2)cc1 has a documented Potency of inactive

Recorded Potency (compound CCCCCCCCCCCCCCCCNc1ccc(C(=O)O)cc1 ): inactive

The reported Potency of the compound COc1ccccc1CNC(=O)C1CCCN(c2nc3ccccc3n3cccc23)C1 (centres undefined) was 2.68 µM (active)

Others:
Entry under test: O=C(O)CN(CC(=O)O)Cc1cc2c(-c3ccccc3C(=O)O)c3cc(CN(CC(=O)O)CC(=O)O)c(=O)cc-3oc2cc1O . Its Potency was inactive

Value of Potency reported for the compound OCCOCCOCCOCCOCCN1CCN(C(c2ccc(Cl)cc2)c2ccc(Cl)cc2)CC1 is 8.49 µM (active)

Lab note: measured Potency of Cc1ccc(-n2c(SCc3ccccc3C)nc3[nH]ncc3c2=O)cc1C was 12 µM (active)

Given item CCOc1ccc(CCNC(=O)C2CCCN(c3nnc(C)c4c(C)n(-c5ccccc5)nc34)C2)cc1 (centres undefined) , the value recorded as its Potency is 4.77 µM (active)
